Overview of reported cell count across a group of molecules:
assay: inhibitors of TNFa-induced NFkB p65 translocation, primary screen, imaging, HUVEC, MLSMR starter and 10KST1 sets (AID 438); settings: HUVEC TNFa-induced p65 nuclear translocation; measured here: nuclei count (cytotoxicity indicator), at 2.08 µM;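 further: compound added about 3h40 before a 20 min TNFalpha stimulation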

Examples with their reported cell count follow.
CCCCOc1ccc(CN2CCN(CCO)CC2)cc1 : 644
CN(C)CCc1nc2ccccc2c(=O)n1-c1ccccc1 : 241

// returns reported cell count for input Clc1ccc(COC(Cn2ccnc2)c2ccc(Cl)cc2Cl)c(Cl)c1 (stereo not drawn)
692

###

Overview of reported z-score across a group of compounds:
assay: Primary imaging screen for DUSP6 inhibitors that restore phospho-Erk in transfected HeLa cells, chemical complementation (AID 609); details: HeLa MKP-3 transfected, phospho-Erk imaging KS statistic; measured here: cell density z-score; at 10 µM
Simply state the number, no unit and no words.

Examples with their reported z-score follow.
Cc1c(N=Cc2c(O)n(Cc3ccco3)c(=O)[nH]c2=O)c(=O)n(-c2ccccc2)n1C : 0.39
CN(C)CCc1nn[nH]n1 : -0.419
CCOC(=O)c1cc2c(cn1)[nH]c1ccccc12 : -0.332
C/C(Cl)=C/CC1(CN2CCCC2=O)C(=O)NC(=O)NC1=O : -1.18
COc1ccc2c(c1OC)C(=O)OC2c1c(O)n(C2CCCCC2)c(=O)[nH]c1=O (stereo unspecified) : 0.755

Let us move to another entry and its z-score.
// returns reported z-score for input `[N-]=[N+]=CC(=O)OC[C@H](N)C(=O)O`
-0.1
